test: cytotoxicity test, alamarBlue method; assay type: cell-based; conditions: mouse, 37 °C, read-out: CC50 against murine macrophage J774.A1
Result type: CC50 at 24 h (µg/mL)
Express the result in µg/mL but write the number alone.

Ask | # query: CC50 at 24 h of entry `Cc1c(Br)cc2c(c1Br)O[C@@]1(CBr)[C@@H](C)CC[C@@]21C`
Reply | 70.4

----------
Experiment: cytotoxicity test, alamarBlue method
Type: cell-based
Details: mouse, J774A.1 macrophages (ATCC TIB-67), 37 °C, read-out: CC50 against murine macrophage J774.A1
Protocol: The murine macrophages J774A.1 (ATCC# TIB-67) cell line was cultured in RPMI 1640 medium supplemented with 10% fetal bovine serum at 37 °C and 5% CO2 atmosphere, was used for the cytotoxicity assays. […] Briefly, the test plates were analyzed, during an interval of time between 24 and 96 h, on an EnSpire® Multimode Plate Reader (Perkin Elmer, Madrid, Spain) using fluorescence, a test wavelength of 570 nm and a reference wavelength of 630 nm. […]
Give log10 of CC50 at 24 h for every item shown.
Use the decimal logarithm of CC50 at 24 h (µg/mL).

Ask | # query: log10 of CC50 at 24 h of entry `Cc1cc2c(cc1Br)[C@]1(C)CC[C@H](C)[C@]1(C)O2`
Reply | 2.51

Ask | What would you report for [H]/N=C(\N/C(=N/[H])NCCCCCCNC(=N)NC(=N)Nc1ccc(Cl)cc1)Nc1ccc(Cl)cc1 [Chlorhexidine, chlorhexidine, reference compound] ?
Reply | 0.82

Ask | What would you report for `Cc1c(Br)cc2c(c1Br)O[C@@]1(CO)[C@@H](C)CC[C@@]21C` ?
Reply | 1.87

Ask | What would you report for `Cc1c(Br)cc2c(c1Br)O[C@@]1(C)[C@@H](C)CC[C@@]21C` ?
Reply | 1.52

Ask | What would you report for `C=C1[C@@H](C)CC[C@@]1(C)c1cc(Br)c(C)cc1O` ?
Reply | 0.86

Ask | What would you report for `Cc1c(Br)cc2c(c1Br)O[C@@]1(C)C[C@@H](Br)CC[C@@]21C` ?
Reply | 1.79

Ask | What would you report for Cc1cc(O)c(C2(C)CCC3CC32C)cc1Br (stereo not shown) ?
Reply | 1.37
